Reported melting point values are given for each entry in this list.

Known melting point results, listed for orientation:
molecule=COc1c(-c2ccc(C(C)(C)N)cc2)ccc2[nH]ncc12.Cl.Cl recorded_endpoint="melting point" value_observed="258 to 261 °C (dec.)"
molecule=CC(C)(N)c1ccc(-c2ccc3[nH]ncc3c2C2CC2)nc1.Cl.Cl.Cl recorded_endpoint="melting point" value_observed="209 to 213 °C (dec.)"

Q. Write down melting point measured for item `CC(C)(N)c1ccc(-c2ccc3[nH]ncc3c2-c2ccno2)cc1.Cl.Cl`
A. 256 to 258 °C (dec.)

Q. Write down melting point measured for item CN(C)/C=C/C(=O)c1c(-c2ccc(C(C)(C)NC(=O)OC(C)(C)C)cc2)ccc2nn(C3CCCCO3)cc12 (centres unmarked)
A. 191 to 194 °C

Q. Write down melting point measured for item `CC(C)(N)c1ccc(-c2ccc3[nH]ncc3c2[N+](=O)[O-])cc1.Cl`
A. 255 to 261 °C (dec.)

Q. Write down melting point measured for item `CC(C)(N)c1ccc(-c2ccc3[nH]ncc3c2C#N)cc1.Cl`
A. 270 to 272 °C

Q. Write down melting point measured for item `CN(C)c1c(-c2ccc(C(C)(C)N)cc2)ccc2[nH]ncc12.Cl.Cl.Cl`
A. 219 to 224 °C (dec.)

Q. Write down melting point measured for item `CC(C)(N)c1ccc(-c2ccc3[nH]ncc3c2OC(F)F)nc1.Cl.Cl.Cl`
A. 170 to 173 °C
